testName: Hematology assays in cynomolgus monkeys (Example 45)
Type: in vivo
testParameters: day 50; escalating dose regimen
Procedure: Groups, each consisting of two male and three female monkeys, were injected subcutaneously with ISIS 416838, ISIS 416850, ISIS 416858, ISIS 416864, or ISIS 417002 in escalating doses. […] Body weights were measured weekly. […]
observedProperty: MCV (fL)

substance	valueObserved
ISIS 416864: MOE gapmer, nucleobases 1275 to 1318 of SEQ ID NO: 1 (Table 8) (antisense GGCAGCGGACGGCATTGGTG; MOE gapmer, wing and gap sizes not given here)	79
ISIS 416850: MOE gapmer, nucleobases 1275 to 1318 of SEQ ID NO: 1 (Table 8) (antisense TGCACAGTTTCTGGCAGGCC; MOE gapmer, wing and gap sizes not given here)	83
ISIS 417002: MOE gapmer, nucleobases 1275 to 1318 of SEQ ID NO: 1 (Table 8) (antisense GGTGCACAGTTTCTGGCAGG; MOE gapmer, wing and gap sizes not given here)	80
ISIS 416838: MOE gapmer, nucleobases 1018 to 1042 of SEQ ID NO: 1 (Table 6) (antisense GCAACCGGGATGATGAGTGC; MOE gapmer, wing and gap sizes not given here)	80
ISIS 416858: MOE gapmer, nucleobases 1275 to 1318 of SEQ ID NO: 1 (Table 8) (antisense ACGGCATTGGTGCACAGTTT; MOE gapmer, wing and gap sizes not given here)	76

====

Parameter percent inhibition of human Factor 11 mRNA relative to untreated control cells: see the listing below.
Test system: human Factor 11 mRNA
testName: Dose-dependent inhibition of human Factor 11 in HepG2 cells, lipofectin 2.34-75 nM (Example 5)
Assay type: cell-based
testParameters: 4.69 nM, ~16 hours
observedProperty: percent inhibition of human Factor 11 mRNA relative to untreated control cells

substance	targetOrTestSystem	valueObserved
416826 (antisense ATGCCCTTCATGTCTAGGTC; 5-10-5 gapmer, further chemistry not given here) [compound 416826]	human Factor 11 mRNA	22%
417002 (antisense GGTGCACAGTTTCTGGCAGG; 2-13-5 gapmer chemistry, further chemistry not given here) [compound 417002]	human Factor 11 mRNA	26%
416858 (antisense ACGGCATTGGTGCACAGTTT; 5-10-5 gapmer, further chemistry not given here) [compound 416858]	human Factor 11 mRNA	35%
417003 (antisense TGGTGCACAGTTTCTGGCAG; 2-13-5 gapmer chemistry, further chemistry not given here) [compound 417003]	human Factor 11 mRNA	29%
416925 (antisense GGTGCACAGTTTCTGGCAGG; 3-14-3 gapmer chemistry, further chemistry not given here) [compound 416925]	human Factor 11 mRNA	34%
416892 (antisense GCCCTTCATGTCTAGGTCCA; 3-14-3 chimeric gapmer, further chemistry not given here) [compound 416892]	human Factor 11 mRNA	34%
416838 (antisense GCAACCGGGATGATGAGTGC; 5-10-5 gapmer, further chemistry not given here) [compound 416838]	human Factor 11 mRNA	37%
416864 (antisense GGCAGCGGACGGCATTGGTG; 5-10-5 gapmer, further chemistry not given here) [compound 416864]	human Factor 11 mRNA	34%
416999 (antisense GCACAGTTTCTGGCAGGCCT; 2-13-5 gapmer chemistry, further chemistry not given here) [compound 416999]	human Factor 11 mRNA	26%
416825 (antisense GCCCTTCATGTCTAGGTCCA; 5-10-5 gapmer, further chemistry not given here) [compound 416825]	human Factor 11 mRNA	22%
416850 (antisense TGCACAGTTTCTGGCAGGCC; 5-10-5 gapmer, further chemistry not given here) [compound 416850]	human Factor 11 mRNA	31%

====

Tested on: fibrinogen
testName: Fibrinogen assay (Example 45)
Assay type: in vivo, cynomolgus monkeys
testParameters: plasma; day 50; escalating dose regimen
observedProperty: fibrinogen levels

substance	valueObserved
ISIS 416850: MOE gapmer, nucleobases 1275 to 1318 of SEQ ID NO: 1 (Table 8) (antisense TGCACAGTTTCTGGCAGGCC; MOE gapmer, wing and gap sizes not given here)	215 mg/dL
ISIS 416838: MOE gapmer, nucleobases 1018 to 1042 of SEQ ID NO: 1 (Table 6) (antisense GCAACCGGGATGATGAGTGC; MOE gapmer, wing and gap sizes not given here)	216 mg/dL
ISIS 416864: MOE gapmer, nucleobases 1275 to 1318 of SEQ ID NO: 1 (Table 8) (antisense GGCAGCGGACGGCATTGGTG; MOE gapmer, wing and gap sizes not given here)	233 mg/dL
ISIS 417002: MOE gapmer, nucleobases 1275 to 1318 of SEQ ID NO: 1 (Table 8) (antisense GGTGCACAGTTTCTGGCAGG; MOE gapmer, wing and gap sizes not given here)	236 mg/dL
ISIS 416858: MOE gapmer, nucleobases 1275 to 1318 of SEQ ID NO: 1 (Table 8) (antisense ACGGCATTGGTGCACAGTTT; MOE gapmer, wing and gap sizes not given here)	259 mg/dL

====

testParameters: rat, in vivo, sc, 50 mg/kg
e = 2'-O-(2-methoxyethyl) (MOE); d = 2'-deoxy (DNA)

substance	Creatinine / mg/dL
ISIS 416848: MOE gapmer, nucleobases 1275 to 1318 of SEQ ID NO: 1 (Table 8) (antisense CACAGTTTCTGGCAGGCCTC; MOE gapmer, wing and gap sizes not given here)	64
ISIS 416863: MOE gapmer, nucleobases 1275 to 1318 of SEQ ID NO: 1 (Table 8) (antisense CAGCGGACGGCATTGGTGCA; MOE gapmer, wing and gap sizes not given here)	73
ISIS 413482: 5-10-5 MOE gapmer GGACGGCATTGGTGCACAGT (sugars from the 5' end e5 d10 e5, backbone and methylation of C not given here)	34
ISIS 412223: 5-10-5 MOE gapmer ACAGTTTCTGGCAGGCCTCG (sugars from the 5' end e5 d10 e5, backbone and methylation of C not given here)	46
ISIS 412225: 5-10-5 MOE gapmer GCAGCGGACGGCATTGGTGC (sugars from the 5' end e5 d10 e5, backbone and methylation of C not given here)	58
ISIS 416866: MOE gapmer, nucleobases 1275 to 1318 of SEQ ID NO: 1 (Table 8) (antisense CTGGCAGCGGACGGCATTGG; MOE gapmer, wing and gap sizes not given here)	85
ISIS 416860: MOE gapmer, nucleobases 1275 to 1318 of SEQ ID NO: 1 (Table 8) (antisense CGGACGGCATTGGTGCACAG; MOE gapmer, wing and gap sizes not given here)	58
ISIS 416867: MOE gapmer, nucleobases 1275 to 1318 of SEQ ID NO: 1 (Table 8) (antisense ACTGGCAGCGGACGGCATTG; MOE gapmer, wing and gap sizes not given here)	70
ISIS 416861: MOE gapmer, nucleobases 1275 to 1318 of SEQ ID NO: 1 (Table 8) (antisense GCGGACGGCATTGGTGCACA; MOE gapmer, wing and gap sizes not given here)	39
ISIS 416859: MOE gapmer, nucleobases 1275 to 1318 of SEQ ID NO: 1 (Table 8) (antisense GACGGCATTGGTGCACAGTT; MOE gapmer, wing and gap sizes not given here)	44

====

Parameter % inhibition: see the listing below.
Test system: human Factor 11 mRNA
testName: Antisense inhibition of human Factor 11 in HepG2 cells by microwalk gapmers, lipofectin, 75 nM (Example 3)
Assay type: cell-based
testParameters: HepG2, lipofectin, ~24 h, gapmers targeted to nucleobases 656 to 704 of SEQ ID NO: 1
Strand notation (5' to 3'): a small letter for the sugar, then the base; units joined by * are phosphorothioate-linked, units joined directly phosphodiester-linked; [ ] holds rarer units or linkages, { } end groups; capitals alone tell only the bases. e = 2'-O-(2-methoxyethyl) (MOE); [5mC] = 5-methylcytosine; d = 2'-deoxy (DNA)

substance	% inhibition / %
416973 (antisense eT*eT*dA*dT*dG*d[5mC]*d[5mC]*d[5mC]*dT*dT*d[5mC]*dA*dT*dG*dT*e[5mC]*eT*eA*eG*eG) [compound 416973]	92
416897 (antisense eT*eT*eT*dA*dT*dG*d[5mC]*d[5mC]*d[5mC]*dT*dT*d[5mC]*dA*dT*dG*dT*d[5mC]*eT*eA*eG) [compound 416897]	66
413469 (antisense eT*eG*e[5mC]*e[5mC]*e[5mC]*dT*dT*d[5mC]*dA*dT*dG*dT*d[5mC]*dT*dA*eG*eG*eT*e[5mC]*e[5mC]) [compound 413469]	86
416870 (antisense eT*eA*eA*dA*dT*dG*dT*d[5mC]*dT*dT*dT*dG*dT*dT*dG*d[5mC]*dA*eA*eG*e[5mC]) [compound 416870]	76
416896 (antisense eT*eT*eA*dT*dG*d[5mC]*d[5mC]*d[5mC]*dT*dT*d[5mC]*dA*dT*dG*dT*d[5mC]*dT*eA*eG*eG) [compound 416896]	95
416894 (antisense eA*eT*eG*d[5mC]*d[5mC]*d[5mC]*dT*dT*d[5mC]*dA*dT*dG*dT*d[5mC]*dT*dA*dG*eG*eT*e[5mC]) [compound 416894]	85
416951 (antisense e[5mC]*eA*d[5mC]*dA*dT*dA*dA*dA*dT*dG*dT*d[5mC]*dT*dT*dT*eG*eT*eT*eG*e[5mC]) [compound 416951]	48
412204 (antisense eT*eT*e[5mC]*eA*eT*dG*dT*d[5mC]*dT*dA*dG*dG*dT*d[5mC]*d[5mC]*eA*e[5mC]*eA*eT*eA) [compound 412204]	76
416880 (antisense eT*eA*eG*dG*dT*d[5mC]*d[5mC]*dA*d[5mC]*dA*dT*dA*dA*dA*dT*dG*dT*e[5mC]*eT*eT) [compound 416880]	66
416970 (antisense eT*eG*d[5mC]*d[5mC]*d[5mC]*dT*dT*d[5mC]*dA*dT*dG*dT*d[5mC]*dT*dA*eG*eG*eT*e[5mC]*e[5mC]) [compound 416970]	88
416874 (antisense e[5mC]*eA*e[5mC]*dA*dT*dA*dA*dA*dT*dG*dT*d[5mC]*dT*dT*dT*dG*dT*eT*eG*e[5mC]) [compound 416874]	49
